Reference source: PubChem BioAssay AID652188

# System: CHO parental cells, FluxOR thallium flux counter-screen
# Assay Summary: thallium flux inhibition in parental CHO, SAR follow-up, counter-screen for TASK1 inhibitor project, cell-based, FluxOR thallium flux, CRC (AID 652188)
Below, each of the compounds is paired with its reported IC50 value.

| Chemical Structure | IC50 |
| --- | --- |
| CCOc1ccccc1C(=O)Nc1cccc(NC(=O)c2cccc(C)c2)c1 | 1240 nM |
| O=C(Nc1cccc(NC(=O)c2ccccc2)c1)c1ccccc1 | 240 nM |

###

Below, each of the molecules is paired with its reported flux ratio, lower = inhibition value.
# Assay Summary: thallium flux inhibition in parental CHO, SAR follow-up, counter-screen for TASK1 inhibitor project, cell-based, FluxOR thallium flux, CRC (AID 652188)
# Particulars: CHO parental cells, FluxOR thallium flux counter-screen; at 30 µM (top of the series)

| Chemical Structure | flux ratio, lower = inhibition |
| --- | --- |
| Cc1cccc(C(=O)Nc2cccc(NC(=O)c3cccc(C(F)(F)F)c3)c2)c1 | 0.304 |
| COc1ccccc1C(=O)Nc1cc(NC(=O)c2ccccc2C(C)C)ccc1F | 0.298 |
| CCCC(=O)C1CCN(c2ncnc3c2CN(C(=O)c2ccc(-c4ccccc4)cc2)CC3)CC1 | 0.302 |
| COc1c(F)cccc1C(=O)Nc1cccc(NC(=O)c2cccc(C)c2)c1 | 0.317 |
| COc1ccccc1C(=O)Nc1cc(NC(=O)c2cccc(C)c2)ccc1F | 0.306 |

###

# Assay Summary: thallium flux inhibition in parental CHO, SAR follow-up, counter-screen for TASK1 inhibitor project, cell-based, FluxOR thallium flux, CRC (AID 652188)
# Particulars: CHO parental cells, FluxOR thallium flux counter-screen; at 30 µM (top of the series)
Endpoint: flux ratio, lower = inhibition

| Chemical Structure | Endpoint | Observed Value |
| --- | --- | --- |
| Cc1cccc(C(=O)Nc2cccc(NC(=O)c3cccc(F)c3)c2)c1 | flux ratio, lower = inhibition | 0.313 |
| O=C(Nc1cccc(NC(=O)c2cccc(F)c2)c1)c1ccccc1 | flux ratio, lower = inhibition | 0.326 |
| Cc1cccc(C(=O)Nc2cccc(NC(=O)c3cccs3)c2)c1 | flux ratio, lower = inhibition | 0.334 |
| COc1ccccc1C(=O)Nc1cccc(NC(=O)c2cccc(C)c2)c1 | flux ratio, lower = inhibition | 0.322 |
| Cc1cccc(C(=O)Nc2cccc(NC(=O)c3ccccc3)c2)c1 | flux ratio, lower = inhibition | 0.319 |
| Cc1cccc(C(=O)Nc2cccc(NC(=O)c3ccncc3)c2)c1 | flux ratio, lower = inhibition | 0.32 |
| COc1cnccc1C(=O)Nc1cccc(NC(=O)c2cccc(C)c2)c1 | flux ratio, lower = inhibition | 0.339 |
| COc1ccc(F)cc1C(=O)Nc1cccc(NC(=O)c2cccc(C)c2)c1 | flux ratio, lower = inhibition | 0.311 |
| COc1ccc(CC(=O)NCc2ccccc2-c2ccccc2C(=O)NCc2ccc(F)cc2F)cc1 | flux ratio, lower = inhibition | 0.295 |
